method: urine levels excreted after administration of benzaldehyde (250 mg/kg) to mice measured at 24-30 hr
Assay type: ADME, organism-based
condition_info: mouse, read-out: Excretion
quantity_kind: dose excreted (%)
Please give a number only; it is taken to be in %.

Value of measured dose excreted for the entry O=Cc1ccccc1 [BENZALDEHYDE] : 5
